Entry source: PubChem BioAssay AID1159580

test: chemical genetic growth profiling, strain panel (AID 1159580);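 further: tested at 20 µM; growth read once vehicle control cultures reached saturation at 30 °C; 1 = growth at the plate median or of vehicle wells; lower values mean less growth of the strain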; details: S. cerevisiae deletion strains, growth OD, locus YGL167C, strain pmr1, active compounds read low
The whole screen tested about 5,500 compounds, of which about 2,000 (36%) were called active. About 18% were inconclusive and are not listed. The list shows a part of the results.
normalized growth by entry:
Provide a numeric answer; units are not to be included.

Some entries whose results are on file:
# molecule, normalized growth
measured = [
    ("CC(=O)OC1CCC2(C)C3CC(=O)C4(C)C(CC5OC6(CCC(C)CO6)[C@@H](C)C54)C3CC[C@H]2C1 (stereo not given in full)", 0.99),
    ("CC1=CC2C(C(C)C)CCC(C)(O)C2CC1 (stereo not given)", 0.98),
    ("NCCNCCNCCN", 0.998),
    ("CO[C@H]1C[C@H](O[C@H]2[C@H](C)[C@@H](OC3O[C@H](C)C[C@H](N(C)C)[C@H]3OC(C)=O)[C@@H](C)C[C@]3(CO3)C(=O)[C@H](C)[C@@H](OC(C)=O)[C@@H](C)[C@@H](C)OC(=O)[C@@H]2C)O[C@@H](C)[C@@H]1OC(C)=O (stereo not given in full)", 0.996),
]

Request: Check the records and state normalized growth for CC(=O)O[C@H]1CC[C@]2(C)C3CC(=O)[C@]4(C)C(C(C)=O)=CCC4C3CC[C@H]2C1 (stereo not given in full)
Result: 0.985

###

assay: chemical genetic growth profiling, strain panel (AID 1159580); conditions: S. cerevisiae deletion strains, growth OD, locus YBR023C, strain chs3, active compounds read low
About 2,000 (36%) of roughly 5,500 compounds were called active. Inconclusive results (about 18%) are left out. Some of the results follow.
result_type: normalized growth

# compound, normalized growth
rows = [
    ("CC[C@@H](CO)NC(=O)[C@@H]1C=C2c3cccc4[nH]cc(c34)C[C@H]2N(C)C1", "0.997 (inactive)"),
    ("CN(C)CCc1c[nH]c2ccc(CS(=O)(=O)N3CCCC3)cc12", "0.997 (inactive)"),
    ("CO[C@@]1(NC(=O)Cc2cccs2)C(=O)N2C(C(=O)O)=C(COC(N)=O)CS[C@@H]21", "0.971 (inactive)"),
    ("c1ccc([C@H]2CN3CCSC3=N2)cc1", "1.01 (inactive)"),
]

Please examine the following record next.
Request: Supply normalized growth value. Item: CCCc1nc2c(C)cc(-c3nc4ccccc4n3C)cc2n1Cc1ccc(-c2ccccc2C(=O)O)cc1
Result: 1.01 (inactive)

###

assay: chemical genetic growth profiling, strain panel (AID 1159580); details: S. cerevisiae deletion strains, growth OD, locus YOR106W, strain vam3
Among all 5,500 compounds or so, about 2,000 (36%) were called active. Not shown: some 18% with an inconclusive outcome. Rule as the data show it: active = normalized growth mostly below about 0.91 (no sharp cut-off); inconclusive = no clear call, values can overlap the other calls; inactive = mostly above about 0.92. Some of the results follow.
Please reply with one of these outcomes: active, inactive

Some entries whose results are on file:
# compound, classification
records = [
    ("CC(=O)O[C@H]1CC[C@]2(C)C3CC(=O)[C@]4(C)C(C(C)=O)=CCC4C3CC[C@H]2C1 (stereo not given in full)", "inactive"),
    ("O=C(O)c1cc(=O)c2c(Cl)cc(Cl)cc2[nH]1", "inactive"),
    ("CC(=O)NO", "inactive"),
]

Request: For COc1ccc(-c2oc3ccccc3c(=O)c2O)cc1OC , which call appears in the assay record?
Result: active

Request: # outcome recorded in this test, key = CC(=O)OC1CCC2(C)C3CC(=O)C4(C)C(CC5OC6(CCC(C)CO6)[C@@H](C)C54)C3CC[C@H]2C1 (stereo not given in full)
Result: inactive

Request: Outcome logged for O=c1c(O)c(-c2ccc(O)c(O)c2)oc2cc(O)ccc12 in this assay:
Result: inactive

Request: For CC(=O)O[C@@H]1CC[C@]2(C)C3CC[C@]4(C)C(=O)CCC4C3CC[C@H]2C1 (stereo not given in full) , what call appears in the results of this test?
Result: inactive

Request: Record request — test call for OCCN1CCN(CCCN2c3ccccc3Sc3ccc(C(F)(F)F)cc32)CC1
Result: active

Request: Test call for this compound, please: CC(=O)OC[C@H]1O[C@@H](Oc2cc(OC(C)=O)c3c(=O)cc(-c4ccc(OC(C)=O)cc4)oc3c2)[C@H](OC(C)=O)[C@@H](OC(C)=O)[C@@H]1OC(C)=O
Result: inactive

Request: Test call, this compound: COc1cc(-c2oc3cc(O)ccc3c(=O)c2O)ccc1O
Result: active

###

Each record here notes measured normalized growth.
experiment: chemical genetic growth profiling, strain panel (AID 1159580);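 further: tested at 20 µM; growth read once vehicle control cultures reached saturation at 30 °C; 1 = growth at the plate median or of vehicle wells; lower values mean less growth of the strain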; details: S. cerevisiae deletion strains, growth OD, locus YAL021C, strain ccr4, active compounds read low
The campaign covered roughly 5,500 compounds. About 2,000 (36%) were called active. Not shown: some 18% with an inconclusive outcome. The list shows a part of the results.
Lab note: write the figure by itself, no unit.

See these solved cases before continuing.
# molecule, normalized growth
data = [
    ("C[C@]12CCC(=O)C=C1CCC1C2C(=O)C[C@@]2(C)C1CC[C@]2(O)C(=O)CO (some centres undefined)", 1.01),
    ("CC(=O)O[C@H]1CC[C@]2(C)C3CC[C@@]4(C)C(CC5O[C@@]6(CCC(C)CO6)[C@@H](C)C54)C3CC[C@@H]2C1 (some centres undefined)", 1.02),
    ("CC(=O)O[C@H]1CC[C@]2(C)C3CC(=O)[C@]4(C)C(C(C)=O)=CCC4C3CC[C@H]2C1 (some centres undefined)", 1),
    ("NC(N)=NC(N)=Nc1ccccc1", 1),
    ("CC(=O)OC1CCC2(C)C3CC(=O)C4(C)C(CC5OC6(CCC(C)CO6)[C@@H](C)C54)C3CC[C@H]2C1 (some centres undefined)", 0.987),
]

Request: Identify the reported normalized growth for the following entry. C[C@]12CCC(=O)C=C1CCC1C2[C@@H](O)C[C@@]2(C)C1CC[C@]2(O)C(=O)COC(=O)CCC(=O)O (some centres undefined)
Result: 1.02

Request: Identify normalized growth associated with the molecule CN(C)C(=N)N=C(N)N
Result: 1.01

Request: Supply recorded normalized growth for CC(=O)OCC(=O)[C@@]1(O)CCC2C3CCC4=CC(=O)CC[C@]4(C)C3[C@@H](O)C[C@@]21C (some centres undefined) here.
Result: 1.03

Request: Provide normalized growth value for the following molecule: O=c1oc2c(O)c(O)cc3c(=O)oc4c(O)c(O)cc1c4c23
Result: 0.352

###

test: chemical genetic growth profiling, strain panel (AID 1159580);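 further: tested at 20 µM; growth read once vehicle control cultures reached saturation at 30 °C; 1 = growth at the plate median or of vehicle wells; lower values mean less growth of the strain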; conditions: S. cerevisiae deletion strains, growth OD, locus YOR231W, strain MKK1, active compounds read low
About 2,000 (36%) of roughly 5,500 compounds were called active. About 18% were inconclusive and are not listed. The list shows a part of the results.
# strict inequality: normalized growth < 1 yields fulfilled, everything else yields not fulfilled

Worked set:
# compound, classification
measured = [
    ("CO[C@H]1C[C@H](O[C@H]2[C@H](C)[C@@H](OC3O[C@H](C)C[C@H](N(C)C)[C@H]3OC(C)=O)[C@@H](C)C[C@]3(CO3)C(=O)[C@H](C)[C@@H](OC(C)=O)[C@@H](C)[C@@H](C)OC(=O)[C@@H]2C)O[C@@H](C)[C@@H]1OC(C)=O (some centres undefined)", "fulfilled"),
    ("CC[C@H]1CN2CCc3cc(OC)c(OC)cc3C2C[C@@H]1CC1NCCc2cc(OC)c(OC)cc21 (some centres undefined)", "not fulfilled"),
]

Attention now shifts to the item below.
Request: Quick check: does CC(=O)NS(=O)(=O)c1ccc(NC(=O)c2ccccc2C(=O)O)cc1 have normalized growth under 1?
Result: fulfilled

###

assay: chemical genetic growth profiling, strain panel (AID 1159580);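 further: tested at 20 µM; growth read once vehicle control cultures reached saturation at 30 °C; 1 = growth at the plate median or of vehicle wells; lower values mean less growth of the strain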; conditions: S. cerevisiae deletion strains, growth OD, locus YIR030C, strain dcg1, active compounds read low
Out of some 5,500 compounds screened, about 2,000 (36%) were called active. Roughly 18% stayed inconclusive and do not appear here. The list shows a part of the results.
result_type: normalized growth
Form rule: numeric answer, no unit written next to it.

Below, 3 compounds whose answers are already recorded.
# compound, normalized growth
rows = [
    ("COc1cc(-c2coc3cc(O[C@@H]4O[C@H](CO)[C@@H](O)[C@H](O)[C@H]4O)c(OC)c(O)c3c2=O)cc(O)c1OC", 0.994),
    ("CC(=O)O[C@H]1CC[C@]2(C)C3CC(=O)[C@]4(C)C(C(C)=O)=CCC4C3CC[C@H]2C1 (some centres undefined)", 0.998),
    ("CC(=O)OCC(=O)[C@@]1(O)CCC2C3CC[C@@H]4C[C@H](OC(C)=O)CC[C@]4(C)C3C(=O)C[C@@]21C (some centres undefined)", 0.999),
]

Lab note: next compound to report on.
Request: Give the measured normalized growth for CC(=O)O[C@H]1CC[C@]2(C)C3CC[C@@]4(C)C(CC5O[C@@]6(CCC(C)CO6)[C@@H](C)C54)C3CC[C@@H]2C1 (some centres undefined)
Result: 0.992
